# maps each entry to its TGI
- Test system: HCT-15 colon
- PROTOCOL_TEXT: NCI tumour cell line growth inhibition, 48 h

COMPOUND: CCc1nc2ccc(C(F)(F)F)cc2[nH]c1=O
ASSAYED_TARGET: HCT-15 colon
RELATION: >
TGI / µM: 100
//
COMPOUND: CCOC(=O)/C(=C\c1ccc[nH]1)C(=O)c1ccccc1
ASSAYED_TARGET: HCT-15 colon
RELATION: >
TGI / µM: 100
//
COMPOUND: CCOC(=O)C(O)(NC(=O)NC(O)(C(=O)OCC)C(F)(F)F)C(F)(F)F (configuration not stated)
ASSAYED_TARGET: HCT-15 colon
RELATION: >
TGI / µM: 100
//
COMPOUND: C[C@]1(O)O[C@@H]2OCC[C@@H]2C2=C1C(=O)c1ccccc1C2=O
ASSAYED_TARGET: HCT-15 colon
RELATION: =
TGI / µM: 39.1
//
COMPOUND: C=C1C[C@@]2(C)C(CC[C@]3(C)C2CC=C2C4CC(C)(C)C[C@@H](OC(=O)/C(C)=C\C)[C@]4(C(=O)O)CC[C@]23C)C(C)(C)C1=O (some centres not stated)
ASSAYED_TARGET: HCT-15 colon
RELATION: =
TGI / µM: 7.88
//
COMPOUND: C=C1C(=O)O[C@H]2[C@H]1CC/C(Cn1cc(-c3cc(C)c(C)cc3C)nn1)=C\CC[C@@]1(C)O[C@@H]21
ASSAYED_TARGET: HCT-15 colon
RELATION: =
TGI / µM: 0.548
//
COMPOUND: CC(NC(C#N)CC12CC3CC(CC(C3)C1)C2)c1ccccc1 (configuration not stated)
ASSAYED_TARGET: HCT-15 colon
RELATION: >
TGI / µM: 100

* * *

- System: KM12 colon
- PROTOCOL_TEXT: NCI tumour cell line growth inhibition, 48 h
*1 amine or outer side, *2 acyl side, *3 side chain or, on linkers, in order; H or OH if unused. Where a SMILES comes first, the peptide text is derived from it. [ ]: non-standard residue; d: D form. ξ: configuration not given here. X56 = CC[C@H](C)[C@H](OC(=O)[C@@H](C)[C@@H](CC)N[*:1])C(=O)[*:2]; X32 = C[C@H](N[*:1])C(=O)C(C)(C)C(=O)[*:2]; X21 = CC[C@@H](C)C(N[*:1])C(=O)[*:2]; NMeY = CN[C@@H](Cc1ccc(O)cc1)C(=O)O; NMeL = CN[C@@H](CC(C)C)C(=O)O; NMeV = CN[C@H](C(=O)O)C(C)C; ξR = N=C(N)NCCCC(N)C(=O)O; ξI = CCC(C)C(N)C(=O)O; ξL = CC(C)CC(N)C(=O)O; ξK = NCCCCC(N)C(=O)O; ξV = CC(C)C(N)C(=O)O; ξA = CC(N)C(=O)O
# maps each entry to its GI50

MOLECULE: N#Cc1ccc2c(c1)C(=O)c1c-2n(CCCN)c(=O)c2cc([N+](=O)[O-])ccc12
GI50: 1.2 µM

MOLECULE: CC(=O)OC1Oc2ccccc2-c2oc(=O)c(-c3cc4ccccc4oc3=O)cc21 (stereo not given)
GI50: 41.4 µM

MOLECULE: CCNCCCn1c2c(c3ccc([N+](=O)[O-])cc3c1=O)C(=O)c1cc(OC)cnc1-2
GI50: 0.197 µM

MOLECULE: COc1ccc(-c2csc(NC(=O)c3cc(O)c(O)c(O)c3)n2)cc1
GI50: 13.2 µM

MOLECULE: CCC(C)C1NC(=O)C(CC(C)C)NC(=O)C(C)NC(=O)C(C(C)C)NC(=O)C(CCCCN)NC(=O)C(CC(C)C)NC(=O)C(C(C)C)NC(=O)[C@H](C)NC(=O)C(C(C)CC)NC(=O)C(CCCN=C(N)N)NC(=O)C(CCCCN)NC(=O)C(CCCN=C(N)N)NC(=O)C(CCCCN)NC(=O)C([C@H](C)CC)NC(=O)C(CCCCN)NC1=O (stereo not given in full) (cyclo(A[ξV][ξL][ξK][ξV][ξA][ξL][ξI][ξK][X21][ξK][ξR][ξK][ξR][ξI]))
GI50: 1.73 µM

MOLECULE: Cc1ccc(Sc2sc(-c3ccccc3)nc2[P+](c2ccccc2)(c2ccccc2)c2ccccc2)cc1
GI50: 0.314 µM

MOLECULE: COc1ccc2c(c1)/C(=C/c1cc(OC)c(OC)c(OC)c1)C(=O)N2C
GI50: 1.76 µM

MOLECULE: CC[C@H](C)[C@@H]1OC(=O)[C@@H](C)[C@@H](CC)NC(=O)[C@H](C)NC(=O)C(C)(C)C(=O)[C@H](C)NC(=O)[C@H](Cc2ccc(OC)cc2)N(C)C(=O)[C@H](C(C)C)N(C)C(=O)CNC(=O)[C@H](CC(C)C)N(C)C(=O)CNC1=O (cyclo(A[X56]G[NMeL]G[NMeV][NMeY](Me)[X32]))
GI50: 0.679 µM

MOLECULE: CCOC(=O)c1cc(C(=O)c2cc(OC)c(OC)c(OC)c2)n2ccccc12
GI50: 0.0744 µM

MOLECULE: NC(=O)c1ccc2nc3c(n2c1)C(=O)C(=O)c1ccccc1-3
GI50: 1.39 µM

* * *

- Tested on: MDA-MB-231 breast
- PROTOCOL_TEXT: NCI tumour cell line growth inhibition, 48 h
*1 amine or outer side, *2 acyl side, *3 side chain or, on linkers, in order; H or OH if unused. Where a SMILES comes first, the peptide text is derived from it. [ ]: non-standard residue; d: D form. ξ: configuration not given here. X21 = CC[C@@H](C)C(N[*:1])C(=O)[*:2]; ξR = N=C(N)NCCCC(N)C(=O)O; ξI = CCC(C)C(N)C(=O)O; ξL = CC(C)CC(N)C(=O)O; ξK = NCCCCC(N)C(=O)O; ξV = CC(C)C(N)C(=O)O; ξA = CC(N)C(=O)O
METRIC: GI50

MOLECULE: COc1ccccc1/C=C/C(=O)/C=C/c1ccccc1OC
EXPERIMENTAL_VALUE: 2.97 µM

MOLECULE: COc1ccc2c(c1)/C(=N/OC(C)=O)c1c-2c(=O)[nH]c2ccccc12
EXPERIMENTAL_VALUE: 13 µM

MOLECULE: O=C(Nc1ccccc1)Nc1cccc(Oc2nnc(Cl)c3ccccc23)c1
EXPERIMENTAL_VALUE: 4.76 µM

MOLECULE: O=C(Nc1cccc(-n2cc(-c3ccncc3)c(-c3ccc(O)c(Cl)c3)n2)c1)Nc1cccc(C(F)(F)F)c1
EXPERIMENTAL_VALUE: 2.24 µM

MOLECULE: CN1CCN(c2ccc(C(=O)Nc3cc(-c4cccc(NS(=O)(=O)c5ccccc5)c4)[nH]n3)cc2)CC1
EXPERIMENTAL_VALUE: 3.53 µM

MOLECULE: C=C1C(=O)O[C@H]2[C@H]1CC/C(Cn1cc(-c3cc(C)c(C)cc3C)nn1)=C\CC[C@@]1(C)O[C@@H]21
EXPERIMENTAL_VALUE: 1.11 µM

MOLECULE: COc1ccc(-c2csc(NC(=O)c3cc(O)c(O)c(O)c3)n2)cc1
EXPERIMENTAL_VALUE: 5.18 µM

MOLECULE: C[C@H](N)C(=O)N1C[C@H](CCCB(O)O)[C@](N)(C(=O)O)C1
EXPERIMENTAL_VALUE: > 100 µM

MOLECULE: CCOC(=O)c1cc(C(=O)c2cc(OC)c(OC)c(OC)c2)n2ccccc12
EXPERIMENTAL_VALUE: 2.81 µM

MOLECULE: COc1ccc(N(/C=C/C(=O)C(F)(F)F)CC(=O)c2ccc(Cl)c(Cl)c2)cc1
EXPERIMENTAL_VALUE: 14.4 µM

MOLECULE: OCC(O)C(O)C(O)/C=N/Nc1nc2ccccc2nc1-c1ccccc1 (stereo unspecified)
EXPERIMENTAL_VALUE: 64.1 µM

MOLECULE: CCC(C)C1NC(=O)C(CC(C)C)NC(=O)C(C)NC(=O)C(C(C)C)NC(=O)C(CCCCN)NC(=O)C(CC(C)C)NC(=O)C(C(C)C)NC(=O)[C@H](C)NC(=O)C(C(C)CC)NC(=O)C(CCCN=C(N)N)NC(=O)C(CCCCN)NC(=O)C(CCCN=C(N)N)NC(=O)C(CCCCN)NC(=O)C([C@H](C)CC)NC(=O)C(CCCCN)NC1=O (stereo partly specified) (cyclo(A[ξV][ξL][ξK][ξV][ξA][ξL][ξI][ξK][X21][ξK][ξR][ξK][ξR][ξI]))
EXPERIMENTAL_VALUE: 1.62 µM

MOLECULE: COc1cc2c(cc1OCCCCOc1ccc(-c3nc4ccccc4s3)cc1)N=C[C@@H]1CCCN1C2=O
EXPERIMENTAL_VALUE: 0.573 µM

MOLECULE: COc1ccc2c(c1)/C(=C/c1cc(OC)c(OC)c(OC)c1)C(=O)N2C
EXPERIMENTAL_VALUE: 2.81 µM

MOLECULE: CC(=O)OC1Oc2ccccc2-c2oc(=O)c(-c3cc4ccccc4oc3=O)cc21 (stereo unspecified)
EXPERIMENTAL_VALUE: 17.4 µM

MOLECULE: COc1cc(/C=C2\C(=O)Nc3cccc(Cl)c32)cc(OC)c1OC
EXPERIMENTAL_VALUE: 33.3 µM
